Data provenance: PubChem BioAssay AID720504

# study-system: Serine/threonine-protein kinase PLK1 (Homo sapiens) (UniProt P53350)
# Sequence (P53350 whole entry, looked up, the tested form may be a part): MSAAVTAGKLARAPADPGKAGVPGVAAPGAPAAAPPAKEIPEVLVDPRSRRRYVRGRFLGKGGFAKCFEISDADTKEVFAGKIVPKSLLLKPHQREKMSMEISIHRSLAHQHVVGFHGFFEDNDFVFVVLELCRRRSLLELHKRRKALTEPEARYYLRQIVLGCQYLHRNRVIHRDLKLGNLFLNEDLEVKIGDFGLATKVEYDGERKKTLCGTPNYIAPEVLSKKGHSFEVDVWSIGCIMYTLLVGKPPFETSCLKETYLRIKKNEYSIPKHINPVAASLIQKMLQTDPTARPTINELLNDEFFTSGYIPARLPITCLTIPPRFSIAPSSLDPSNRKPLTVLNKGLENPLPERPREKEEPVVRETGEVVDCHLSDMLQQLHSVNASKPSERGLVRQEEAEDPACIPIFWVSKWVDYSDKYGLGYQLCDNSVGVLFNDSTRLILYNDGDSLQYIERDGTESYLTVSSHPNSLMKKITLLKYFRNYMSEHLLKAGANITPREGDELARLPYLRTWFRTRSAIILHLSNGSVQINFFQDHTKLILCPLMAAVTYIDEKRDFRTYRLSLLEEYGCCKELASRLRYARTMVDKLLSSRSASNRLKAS
# assay-explanation: qHTS for Inhibitors of PLK1-PDB (polo-like kinase 1 - polo-box domain): Primary Screen; also: series mostly up to about 57 µM; % is scaled to controls: 0 for no effect and ±100 for the full control effect; nearly all actives have a fitted effect of over 65% in size
# condition-summary: Plk1 PBD binding of FITC phosphopeptide, fluorescence polarization
Screen size: about 360,000 compounds; about 10,000 (2.8%) were called active. Inconclusive results (about 4%) are left out. What follows is part of a selection rich in actives, with near analogues and random picks from the rest.
test-readout: max response, negative = inhibition (%)
Use % as the unit, but write only the number.

Below: 10 compounds and their reported max response, negative = inhibition.
{"compound": "COc1ccc(-c2cc3c(c4c2ccn4C)C2CCC3C2)cn1 (stereo unspecified)", "scale-unit": "%", "max response, negative = inhibition": -0.384}
{"compound": "COc1cccc(N2C(=O)CC(N3CCc4ccccc4C3)C2=O)c1 (stereo unspecified)", "scale-unit": "%", "max response, negative = inhibition": -2.65}
{"compound": "COC(=O)C1(C(=O)OC)C/C=C\\CN(S(=O)(=O)c2ccccc2[N+](=O)[O-])CCC1", "scale-unit": "%", "max response, negative = inhibition": 3.46}
{"compound": "Cc1cccc(N2C(=O)SC(N(CC(=O)O)c3cccc(C)c3)C2=O)c1 (stereo unspecified)", "scale-unit": "%", "max response, negative = inhibition": -27.2}
{"compound": "COC(=O)c1ccccc1SC1CC(=O)N(c2cccc(C)c2)C1=O (stereo unspecified)", "scale-unit": "%", "max response, negative = inhibition": -24.8}
{"compound": "CC(=O)Oc1ccc(Cn2c(C)c(C(=O)NCc3ccc(C#N)cc3)sc2=O)cc1", "scale-unit": "%", "max response, negative = inhibition": -2.92}
{"compound": "COc1ccccc1CNC(=O)c1cc(-c2cc(Cl)ccc2C)n[nH]1", "scale-unit": "%", "max response, negative = inhibition": 0.345}
{"compound": "COc1ccccc1-c1cc2nc(NCc3cccc(Cl)c3)ccn2n1", "scale-unit": "%", "max response, negative = inhibition": -9.83}
{"compound": "CC(=O)c1c(C)[nH]c(=S)c(C#N)c1-c1ccc(F)cc1", "scale-unit": "%", "max response, negative = inhibition": -8.58}
{"compound": "Cc1noc(C)c1S(=O)(=O)N(C)C[C@H]1OCCCC[C@@H](C)Oc2ccc(NC(=O)CCCN(C)C)cc2C(=O)N([C@H](C)CO)C[C@@H]1C", "scale-unit": "%", "max response, negative = inhibition": -12.6}

Given the compound Cc1cccc(-c2cnc(C(O)c3cc(C)cc(C)c3)[nH]2)c1 (stereo unspecified) , what is its reported max response, negative = inhibition?
-12

Given the compound `CCCCNC(=O)C[C@@H]1C[C@@]2(C(=O)OCC)CCC=C2N(Cc2cccc3ccccc23)C1=O` , what is its reported max response, negative = inhibition?
-0.117

Given the compound `Cc1[nH]c2ccccc2c1C(=O)c1cc([C@H](NC(=O)OC(C)(C)C)C(C)C)sc1N` , what is its reported max response, negative = inhibition?
-13.9

Given the compound `CC(C)(C)Cc1c(C2CCCCC2)nc2ccc(Br)cn12` , what is its reported max response, negative = inhibition?
3.52

Given the compound `c1ccc(Cc2c(-c3ccco3)nc3c4ccccc4ccn23)cc1` , what is its reported max response, negative = inhibition?
-8.74

###

# study-system: Serine/threonine-protein kinase PLK1 (Homo sapiens)
# assay-explanation: qHTS for Inhibitors of PLK1-PDB (polo-like kinase 1 - polo-box domain): Primary Screen; also: series mostly up to about 57 µM; % is scaled to controls: 0 for no effect and ±100 for the full control effect; nearly all actives have a fitted effect of over 65% in size
# condition-summary: Plk1 PBD binding of FITC phosphopeptide, fluorescence polarization
# From the text: The polo-like kinase 1 (Plk1) is a member of a conserved subfamily of serine / threonine protein kinases that plays a pivotal roles in cell proliferation. It has a C-terminal non-catalytic region called the polo-box domain (PBD) that plays a crucial role in the subcellular localization of the Plk1. […] This project employed a fluorescence polarization (FP) assay using a FITC-conjugated phospho-9-mer (p-9-mer) peptide and purified human Plk1 PBD protein. […]
Screen size: about 360,000 compounds; about 10,000 (2.8%) were called active. About 4% were inconclusive and are not listed. Only a selection was taken, and actives are over-represented in it overall.
Collected max response, negative = inhibition values appear next to each entry.

Given the molecule `Cc1cc2nc(-c3ccc(F)cc3)c(Cc3ccsc3)n2c(C)c1Br` , what is its reported max response, negative = inhibition?
-4.34% (inactive)

Given the molecule `CC(C)(C)NC(=O)NC(=O)COC(=O)Cn1c(C(F)(F)F)nc2ccccc21` , what is its reported max response, negative = inhibition?
-11.6% (inactive)

Given the molecule Cc1nc(C(F)(F)F)ccc1C(=O)N1CCC1(C)C(=O)NS(=O)(=O)c1ccc(F)cc1F (stereo unspecified) , what is its reported max response, negative = inhibition?
1.72% (inactive)

Given the molecule `CCc1nc2c(OCC(=O)C(C)(C)C)cccn2c1N(C)C(=O)c1ccccc1F` , what is its reported max response, negative = inhibition?
-11% (inactive)

Given the molecule `CCc1nc2ccc(C(=O)Nc3cccc(OC)c3)cn2c1N(CCC(C)C)CCN(C)C` , what is its reported max response, negative = inhibition?
0.24% (inactive)

###

# study-system: Serine/threonine-protein kinase PLK1 (Homo sapiens) (UniProt P53350)
# assay-explanation: qHTS for Inhibitors of PLK1-PDB (polo-like kinase 1 - polo-box domain): Primary Screen; also: series mostly up to about 57 µM; % is scaled to controls: 0 for no effect and ±100 for the full control effect; nearly all actives have a fitted effect of over 65% in size
# condition-summary: Plk1 PBD binding of FITC phosphopeptide, fluorescence polarization
# From the text: The polo-like kinase 1 (Plk1) is a member of a conserved subfamily of serine / threonine protein kinases that plays a pivotal roles in cell proliferation. It has a C-terminal non-catalytic region called the polo-box domain (PBD) that plays a crucial role in the subcellular localization of the Plk1. […] This project employed a fluorescence polarization (FP) assay using a FITC-conjugated phospho-9-mer (p-9-mer) peptide and purified human Plk1 PBD protein. […]
Screen size: about 360,000 compounds; about 10,000 (2.8%) were called active. Another 4% or so got no clear call; they are omitted. Shown is part of a subset that was picked to be rich in actives.
Collected max response, negative = inhibition values appear next to each entry.
Use % as the unit, but write only the number.

Which max response, negative = inhibition is reported with Serine/threonine-protein kinase PLK1 (Homo sapiens) (UniProt P53350) for this entry: `Cc1csc(=O)n1CCC(=O)OCC(=O)Nc1ccc(N2CCOCC2)cc1` ?
1

Which max response, negative = inhibition is reported with Serine/threonine-protein kinase PLK1 (Homo sapiens) (UniProt P53350) for this entry: CC(=O)c1cccc(NC(=O)C2COc3ccccc3O2)c1 (stereo not given) ?
2.4

###

# study-system: Serine/threonine-protein kinase PLK1 (Homo sapiens)
# assay-explanation: qHTS for Inhibitors of PLK1-PDB (polo-like kinase 1 - polo-box domain): Primary Screen; also: series mostly up to about 57 µM; % is scaled to controls: 0 for no effect and ±100 for the full control effect; nearly all actives have a fitted effect of over 65% in size
# condition-summary: Plk1 PBD binding of FITC phosphopeptide, fluorescence polarization
About 10,000 (2.8%) of roughly 360,000 compounds were called active. Inconclusive results (about 4%) are left out. The full list was thinned out, with actives kept by preference.
Collected max response, negative = inhibition values appear next to each entry.
Use % as the unit, but write only the number.

{"molecule": "COCCNc1ncnc2c1ncn2[C@H]1CN(CCN2CCOCC2)C[C@@H](CO)O1", "test-readout": "max response, negative = inhibition", "scale-unit": "%", "assay-value": -5.67}
{"molecule": "O=C(NNC(=O)c1ccccc1[N+](=O)[O-])Nc1ccccc1C(F)(F)F", "test-readout": "max response, negative = inhibition", "scale-unit": "%", "assay-value": -9.97}
{"molecule": "Cc1cccc(-c2cnc(C(O)c3ccc4ccccc4c3)[nH]2)c1 (stereo not given)", "test-readout": "max response, negative = inhibition", "scale-unit": "%", "assay-value": -0.198}
{"molecule": "O=C(COC(=O)/C=C/c1ccc(Cl)cc1)NC1CCS(=O)(=O)C1 (stereo not given)", "test-readout": "max response, negative = inhibition", "scale-unit": "%", "assay-value": 3.25}

Given the molecule `COc1cc(CNc2ncnc3c2ncn3[C@H]2CN(Cc3cccs3)C[C@@H](CO)O2)cc(OC)c1OC` , what is its reported max response, negative = inhibition?
-6.55

Given the molecule CC1(C(=O)Nc2ccc3c(c2)OCCO3)CSCC(=O)N1CCOc1ccccc1 (stereo not given) , what is its reported max response, negative = inhibition?
0.116

Given the molecule `N#Cc1ccc(-c2ccc3nccn3c2)cc1` , what is its reported max response, negative = inhibition?
-5.23

Given the molecule `CCOC(=O)c1cnc(SCC(=O)NCc2ccco2)nc1N` , what is its reported max response, negative = inhibition?
-1.79

Given the molecule `O=C(CNc1ccc(F)cc1F)NC(=O)NCc1ccco1` , what is its reported max response, negative = inhibition?
-20.1

Given the molecule `COc1ccc(S(=O)(=O)N[C@@H]2C=C[C@@H](CC(=O)N3CCc4ccccc4C3)O[C@@H]2CO)cc1` , what is its reported max response, negative = inhibition?
-0.456
